Tested on: MS2 coat protein
assayInfo: apparent KD of MS2 coat protein; designed switch direction (-1 OFF switch, 1 ON switch): -1; higher = weaker reporter binding
conditionSummary: input ligand: none
Class field: derived from apparent KD of MS2 coat protein; ranges range A: < 20 nM; range B: ≥ 20 nM and < 40 nM; range C: ≥ 40 nM

UACGAACUAGGAUAUGCAAAGGGCUCGCUUUCCUUCGAUAAACUUGAGGAUCACCCAAGUAGAAGGAGUUUGUA [Mod 39 - Jieux - Exclusion 2] (Eterna round: R97, puzzle: Exclusion 2) = range A
CUGCUGGAGUUUUGCUUUGGUCGUACAUGAGGAUCACCCAUGUAGGAUAUGGUAAAAUUCGCCUGCUAGAAGGAUAGAGUGGUC [salish99_ExNG3_r04_621] (Eterna round: R96, puzzle: Exclusion NG 3) = range B

Could you tell me which band AGAUCUAGGACAGGAUAUACGGAUGUCUUCAUCGAAGAUGAAGACAUCACAUGAGGAUCACCCAUGUAGAAGGGUCCUAGAUCA [Omei Exc(NG) 2A] (Eterna round: R96, puzzle: Exclusion NG 2) belongs to?
range A

Kindly identify the class of GGCUGCAAUGUAGGAUAUCUGCACGUGUAGUGCAGAGAAGGACAUGAGGAUCACCCAUGUAUAGUAGCUUCGGCUACAGCAGCC [ENG1-D3] (Eterna round: R96, puzzle: Exclusion NG 1) .
range A

Each sequence maps to one class by apparent KD of MS2 coat protein. Which class for GCCGAAAAAGUGAGGAUAUACCUAUGGAAACAUAGGUAGAAGGCACAUGAGGAUCACCCAUGUAUCCUAACGGC [Mat - Exclusion 4 - Eli Mod - D28] (Eterna round: R97, puzzle: Brourd's mod of Exclusion 4) ?
range B

Category lookup for the sequence UUCGUGCAGCUUUGCUGUACGAGUACAUGAGGAUCACCCAUGUAGGAUAUGGUACGCUUUGCGUGCCAGAAGGACGUGCGUUAG [salish99_ExNG3_r04_002] (Eterna round: R96, puzzle: Exclusion NG 3)
range C
